System: Escherichia coli TOP10
PROCEDURE DETAILS: shrunken log2 fold change of peptide-encoding DNA abundance (4.5 h post-induction vs induction); higher = less antimicrobial activity (less host growth inhibition)
PARTICULARS: time post-induction: 4.5 h; library: site-saturation at positions 5, 18, 19, 20
ASSAY METRIC: shrunken log2 fold change
Please give the numeric answer without any surrounding text.

SEQUENCE TEXT: RRIRMRPPRLPRPRPRPINMPRP
ASSAY SYSTEM: Escherichia coli TOP10
shrunken log2 fold change: -0.0607

SEQUENCE TEXT: RRIRMRPPRLPRPRPRPFLTPRP
ASSAY SYSTEM: Escherichia coli TOP10
shrunken log2 fold change: 0.0674

SEQUENCE TEXT: RRIRMRPPRLPRPRPRPVQYPRP
ASSAY SYSTEM: Escherichia coli TOP10
shrunken log2 fold change: 0.0273

SEQUENCE TEXT: RRIRKRPPRLPRPRPRPIGCPRP
ASSAY SYSTEM: Escherichia coli TOP10
shrunken log2 fold change: -0.000243

SEQUENCE TEXT: RRIRWRPPRLPRPRPRPLIRPRP
ASSAY SYSTEM: Escherichia coli TOP10;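 also: peptides expressed intracellularly from a pBAD plasmid library in pooled LB shake-flask culture, induced with 0.3% L-arabinose, DNA abundance read by NGS, three biological replicates, DESeq2 with apeglm shrinkage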
shrunken log2 fold change: -0.117

Given `RRIRIRPPRLPRPRPRPRCTPRP` , state its recorded shrunken log2 fold change.
-0.141

Here is the next sequence: `RRIRHRPPRLPRPRPRPFWQPRP`
0.0187

Entry source: the supplement of paper PMC9112550
